src = patent US12077503B2

# Test system: pigweed (Amaranthus retroflexus)
# RUN_DESCRIPTION: Test A postemergence
# Type: in vivo
# REPORTED_CONDITIONS: Postemergence, 125 g ai/ha; visual injury, 0 to 100 scale (0 no effect, 100 complete control), approx. 10 d
Listing: Plant response rating, Pigweed of selected molecules

{"MOLECULE": "O=C1NCC(c2cccc(F)c2)C1C(=O)Nc1cccc(F)c1F (racemic) [Compound 375]", "Plant response rating, Pigweed": 20}
{"MOLECULE": "Nc1cccc(C2CNC(=O)C2C(=O)Nc2cccc(F)c2F)c1 (centres unmarked) [Compound 353]", "Plant response rating, Pigweed": 0}
{"MOLECULE": "O=C1NCC(c2ccccc2-c2ccccc2)C1C(=O)Nc1cccc(F)c1F (racemic) [Compound 379]", "Plant response rating, Pigweed": 0}
{"MOLECULE": "O=C1NCC(c2ccc(F)c(F)c2)C1C(=O)Nc1n[nH]cc1Br (racemic) [Compound 361]", "Plant response rating, Pigweed": 0}
{"MOLECULE": "O=C1NCC(c2cccnc2)C1C(=O)Nc1ccccc1C(F)(F)F (racemic) [Compound 352]", "Plant response rating, Pigweed": 0}
